# Target Or Test System: serotonin transporter (SERT) (Homo sapiens, UniProt P31645)
# Sequence (P31645 whole entry, species assumed): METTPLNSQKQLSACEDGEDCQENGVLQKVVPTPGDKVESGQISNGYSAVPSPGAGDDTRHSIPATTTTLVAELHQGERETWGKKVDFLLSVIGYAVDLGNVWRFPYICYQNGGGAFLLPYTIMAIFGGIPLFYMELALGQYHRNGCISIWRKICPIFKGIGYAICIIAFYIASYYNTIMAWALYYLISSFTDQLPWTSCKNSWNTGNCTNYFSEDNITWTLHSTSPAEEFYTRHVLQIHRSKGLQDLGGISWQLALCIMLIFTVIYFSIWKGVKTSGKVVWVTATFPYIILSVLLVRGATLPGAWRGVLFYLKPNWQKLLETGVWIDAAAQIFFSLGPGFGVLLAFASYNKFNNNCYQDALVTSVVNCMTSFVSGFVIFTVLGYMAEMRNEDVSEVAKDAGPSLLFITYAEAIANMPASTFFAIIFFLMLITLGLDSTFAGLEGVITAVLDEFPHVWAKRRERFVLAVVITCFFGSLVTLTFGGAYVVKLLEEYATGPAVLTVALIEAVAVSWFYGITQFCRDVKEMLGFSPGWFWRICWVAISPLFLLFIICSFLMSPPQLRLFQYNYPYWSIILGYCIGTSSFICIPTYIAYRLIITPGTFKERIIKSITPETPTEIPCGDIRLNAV
# Assay: Serotonin reuptake inhibition, [3H]-5-HT, cells transfected with 5-HT transporter cDNA
# Measurement Context: compound 1 μM; relative to control without compound (100%); lower value = stronger inhibition
Measured Endpoint: Triple reuptake inhibition (Ratio %) SERT

Sample answers from the record:
// query API: value(readout=Triple reuptake inhibition (Ratio %) SERT, system=serotonin transporter (SERT) (Homo sapiens, UniProt P31645)) for record FC(F)(F)c1cccc(-c2nnc(CN3CCC(Cc4ccccc4)CC3)[nH]2)c1
// result 86.78

// query // query: COC(=O)c1ccc2[nH]c(-c3nnc(CN4CCC(Cc5ccccc5)CC4)[nH]3)cc2c1
// result 50.14

// query Same lookup for CN(C)CCNC(=O)c1ccc(-c2nnc(CN3CCC(Cc4ccccc4)CC3)[nH]2)cc1 , please.
// result 50.24

// query Next entry: COc1cc2cc(-c3nnc(CN4CCC(Cc5ccc(Cl)c(Cl)c5)CC4)[nH]3)[nH]c2cc1OC
// result 32.68

// query And COC(=O)c1cccc2c(-c3nnc(CN4CCC(Cc5ccccc5)CC4)[nH]3)c[nH]c12 ?
// result 42.17

a = c1ccc(CC2CCN(Cc3nnc(-c4ccc5c(c4)OCO5)[nH]3)CC2)cc1
b = COc1ccc2[nH]cc(-c3nnc(CN4CCC(Cc5ccccc5)CC4)[nH]3)c2c1
c = FC(F)(F)Oc1cccc(-c2nnc(CN3CCC(Cc4ccccc4)CC3)[nH]2)c1
// query Please list the entries, largest Triple reuptake inhibition (Ratio %) SERT first. Returns: the labels listed in the requested order.
// result c, a, b
(c: 88.15%, a: 59.52%, b: 41.52%)

----------
# Target Or Test System: UniProt P31645
# Assay: Serotonin reuptake inhibition, [3H]-5-HT, cells transfected with 5-HT transporter cDNA
# Measurement Context: compound 1 μM; relative to control without compound (100%); lower value = stronger inhibition
Measured Endpoint: Triple reuptake inhibition (Ratio %) SERT

Below: 2 molecules and their reported Triple reuptake inhibition (Ratio %) SERT.
// query Reported Triple reuptake inhibition (Ratio %) SERT, molecule Fc1ccc2[nH]c(-c3nnc(CN4CCC(Cc5ccccc5)CC4)[nH]3)cc2c1 : ____
// result 67.47

// query Follow-up item: c1ccc(CN2CCN(Cc3nnc(-c4cc5ccccc5[nH]4)[nH]3)CC2)cc1
// result 90.26

I = COc1cccc2c(-c3nnc(CN4CCC(Cc5ccccc5)CC4)[nH]3)c[nH]c12
II = Fc1ccc2[nH]c(-c3nnc(CN4CCC(Cc5ccc(Cl)c(Cl)c5)CC4)[nH]3)cc2c1
III = N#Cc1ccc2[nH]c(-c3nnc(CN4CCC(Cc5ccccc5)CC4)[nH]3)cc2c1
IV = COc1ccc2c(-c3nnc(CN4CCC(Cc5ccccc5)CC4)[nH]3)c[nH]c2c1
// query Order the records by Triple reuptake inhibition (Ratio %) SERT, with each subsequent value no larger than the one before. Enter labels, ranked according to the request.
// result II, III, I, IV

----------
# Target Or Test System: norepinephrine transporter (NET) (Homo sapiens, UniProt P23975)
# Sequence (P23975 whole entry, species assumed): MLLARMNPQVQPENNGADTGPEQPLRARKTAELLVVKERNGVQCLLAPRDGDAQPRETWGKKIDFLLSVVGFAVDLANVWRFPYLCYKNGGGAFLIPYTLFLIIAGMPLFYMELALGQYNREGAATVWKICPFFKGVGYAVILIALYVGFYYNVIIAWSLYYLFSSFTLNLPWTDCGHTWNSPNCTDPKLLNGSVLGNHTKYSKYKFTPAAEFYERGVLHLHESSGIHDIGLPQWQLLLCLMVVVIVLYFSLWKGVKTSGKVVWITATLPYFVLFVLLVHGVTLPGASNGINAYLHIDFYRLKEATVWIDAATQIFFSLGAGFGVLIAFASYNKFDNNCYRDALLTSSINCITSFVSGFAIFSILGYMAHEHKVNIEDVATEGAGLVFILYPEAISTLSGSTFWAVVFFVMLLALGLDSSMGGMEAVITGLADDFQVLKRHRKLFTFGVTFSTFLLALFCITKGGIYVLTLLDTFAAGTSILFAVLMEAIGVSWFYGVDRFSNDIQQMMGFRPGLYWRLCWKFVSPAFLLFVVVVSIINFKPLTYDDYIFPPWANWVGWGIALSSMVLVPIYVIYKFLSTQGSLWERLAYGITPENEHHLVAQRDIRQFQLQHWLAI
# Assay: Norepinephrine reuptake inhibition, [3H]-NE, cells transfected with NE transporter cDNA
# Measurement Context: compound 1 μM; relative to control without compound (100%); lower value = stronger inhibition
Measured Endpoint: Triple reuptake inhibition (Ratio %) NET

Guide cases for Triple reuptake inhibition (Ratio %) NET, answers given:
// query Recorded Triple reuptake inhibition (Ratio %) NET for Oc1ccc2cc(-c3nnc(CN4CCC(Cc5ccccc5)CC4)[nH]3)ccc2c1 [Example 52] , please?
// result 50.92

// query Same again, this time with Clc1ccc(CC2CCN(Cc3nnc(-c4cc5ccccc5[nH]4)[nH]3)CC2)cc1Cl [Example 5]
// result 78.01

// query Okay, and Clc1cccc2[nH]c(-c3nnc(CN4CCC(Cc5ccccc5)CC4)[nH]3)cc12 [Example 24] ?
// result 26.69

// query Same lookup for FC(F)(F)c1ccc(-c2nnc(CN3CCC(Cc4ccc(Cl)c(Cl)c4)CC3)[nH]2)cc1 [Example 62] , please.
// result 36.41

// query Please give the result for CC(=O)Nc1ccc2[nH]c(-c3nnc(CN4CCC(Cc5ccccc5)CC4)[nH]3)cc2c1 [Example 66] too.
// result 58.77

// query Entry to check: COC(=O)c1ccc(-c2nnc(CN3CCC(Cc4ccccc4)CC3)[nH]2)cc1N [Example 63]
// result 27.25

// query Continue with CCCCOc1ccc2cc(-c3nnc(CN4CCC(Cc5ccccc5)CC4)[nH]3)[nH]c2c1 [Example 69]
// result 90.43

1 = c1ccc(CC2CCN(Cc3nnc(-c4c[nH]c5ccccc45)[nH]3)CC2)cc1 [Example 22]
2 = COc1cccc2c(-c3nnc(CN4CCC(Cc5ccc(Cl)c(Cl)c5)CC4)[nH]3)c[nH]c12 [Example 45]
3 = c1ccc(CC2CCN(Cc3nnc(-c4cc5ccccc5o4)[nH]3)CC2)cc1 [Example 25]
4 = COc1ccc2cc(-c3nnc(CN4CCC(Cc5ccccc5)CC4)[nH]3)[nH]c2c1 [Example 18]
// query Sort (4 compounds) by Triple reuptake inhibition (Ratio %) NET: min first. Reply with the item labels sorted in the order that was asked for.
// result 4, 1, 3, 2
